- target_or_test_system: Thermotoga-derived TrpRS (Thermotoga maritima, UniProt Q9WYW2)
- Construct: His tag (C); made in house; host or cells: Escherichia coli BL21 (DE3)
- Sequence (Q9WYW2 whole entry): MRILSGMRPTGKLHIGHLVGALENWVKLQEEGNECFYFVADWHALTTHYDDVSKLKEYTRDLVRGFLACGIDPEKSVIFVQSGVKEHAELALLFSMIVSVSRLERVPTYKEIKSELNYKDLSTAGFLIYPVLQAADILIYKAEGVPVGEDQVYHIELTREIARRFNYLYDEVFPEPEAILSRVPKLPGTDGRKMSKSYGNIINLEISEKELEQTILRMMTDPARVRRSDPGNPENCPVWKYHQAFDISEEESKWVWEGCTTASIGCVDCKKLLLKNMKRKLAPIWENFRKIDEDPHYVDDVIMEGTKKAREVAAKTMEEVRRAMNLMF
- experimental_protocol: Qualitative test of AARS substrate specificity (molybdenum blue method)
- Assay type: biochemical, Thermotoga maritima MSB8 strain
- Parameters: key: +: Activity was detected; −: Activity was not detected
- experimental_parameters: Tyr 1 mM, other amino acids 5 mM; hydroxylamine 1000 mM; TrpRS 0.1 mg/ml; 30° C.
reported_metric: Detection of the activity (pyrophosphate generation), TrpRS

Recorded results for 8 compounds are shown here.
C[C@@H](O)[C@H](N)C(=O)O [Thr, L-threonine] | −
CC[C@H](C)[C@H](N)C(=O)O [Ile, L-isoleucine] | −
N[C@@H](CS)C(=O)O [Cys, L-cysteine] | −
N[C@@H](CCC(=O)O)C(=O)O [Glu, L-glutamic acid] | −
NC(=O)C[C@H](N)C(=O)O [Asn, L-asparagine] | −
NCC(=O)O [Gly, glycine] | −
C[C@H](N)C(=O)O [Ala, L-alanine] | −
N=C(N)NCCC[C@H](N)C(=O)O [Arg, L-arginine] | −

Kindly give each listed record's Detection of the activity (pyrophosphate generation), TrpRS.
1. NCCCC[C@H](N)C(=O)O [Lys, L-lysine]
2. NC(=O)CC[C@H](N)C(=O)O [Gln, L-glutamine]
3. N[C@@H](CO)C(=O)O [Ser, L-serine]
4. N[C@@H](Cc1c[nH]cn1)C(=O)O [His, L-histidine]
5. N[C@@H](CC(=O)O)C(=O)O [Asp, L-aspartic acid]

A:
−
−
−
−
−

Kindly give each listed record's Detection of the activity (pyrophosphate generation), TrpRS.
1. O=C(O)[C@@H]1CCCN1 [Pro, L-proline]
2. CSCC[C@H](N)C(=O)O [Met, L-methionine]
3. N[C@@H](Cc1ccccc1)C(=O)O [Phe, L-phenylalanine]
4. N[C@@H](Cc1ccc(O)cc1)C(=O)O [Tyr, L-tyrosine]
5. N[C@@H](Cc1c[nH]c2ccccc12)C(=O)O [Trp, L-tryptophan]
6. CC(C)[C@H](N)C(=O)O [Val, L-valine]
7. CC(C)C[C@H](N)C(=O)O [Leu, L-leucine]

A:
−
−
−
−
+
−
−
